Data origin, for the record: patent US12297193B2

test: PK study in SD rats after a single intravenous administration; assay type: in vivo; conditions: Sprague-Dawley (SD), rat, plasma, 1 mg/kg, 24 h
The following molecules are shown together with reported concentration at 24 h values.
assay-endpoint: concentration at 24 h (µg/mL)

| molecule | obs-value |
| --- | --- |
| CC1(C)CC(Nc2cccc(-c3sc(C(=O)O)c(OCC(=O)O)c3Cl)c2)CCN1S(=O)(=O)Cc1ccc2oc(N3CCC(c4ccc5c6c(cccc46)C(=O)N5C4CCC(=O)NC4=O)CC3)nc2c1 (stereo not shown) | 0.0986 |
| O=C(O)COc1c(C(=O)O)sc(-c2cccc(NC3CCN(S(=O)(=O)Cc4ccc5oc(N6CCC(c7ccc8c9c(cccc79)C(=O)N8C7CCC(=O)NC7=O)CC6)nc5c4)C4(CC4)C3)c2)c1Cl (stereo not shown) | 0.206 |
| [2H]C([2H])(c1ccc2oc(N3CCC(c4ccc5c6c(cccc46)C(=O)N5C4CCC(=O)NC4=O)CC3)nc2c1)S(=O)(=O)N1CCC(Nc2cccc(-c3sc(C(=O)O)c(OCC(=O)O)c3Cl)c2)CC1(C)C (stereo not shown) | 0.0575 |
| O=C(O)COc1c(C(=O)O)sc(-c2cccc(NC3CCN(S(=O)(=O)Cc4ccc5oc(N6CCC(c7ccc8c9c(cccc79)C(=O)N8C7CCC(=O)NC7=O)CC6)nc5c4)CC3)c2)c1Cl (stereo not shown) | 0.0396 |
